Just for reference, ChEMBL document CHEMBL4145465 is where these values come from.

- Tested on: VSMC
- Assay Details: Induction of elastin synthesis in rat VSMC at 50 uM after 48 hrs by ELISA relative to control
- Assay type: functional
Activity calls are given as the source filed them. The rule behind the calls is not given here.
Hi there, use one of these labels in your reply, thanks! yes (1) = active, no (0) = inactive

Example entries and their recorded answers appear below.
Molecule: COc1ccc(Cl)cc1C(C)NC(=O)N(C)S(=O)(=O)c1ccccc1 (racemic)
Assigned Label: yes (1)

Molecule: CC(NC(=O)NS(=O)(=O)c1ccc(Cl)cc1)c1cc(Br)ccc1OCc1ccccc1 (racemic)
Assigned Label: yes (1)

Molecule: CCOc1ccc(Cl)cc1C(C)NC(=O)N(C)S(=O)(=O)c1ccccc1 (stereo not given)
Assigned Label: yes (1)

For the next question, use this molecule.
In: Recorded call for Cc1ccc(OCc2ccccc2)c(C(C)NC(=O)NS(=O)(=O)c2ccc(Cl)cc2)c1 (racemic) ?
Out: no (0)

====

- System: Trachea
- Assay Details: Tracheorelaxant activity in Wistar rat trachea tonus assessed as reduction in 30 mM KCl-induced contraction after 15 mins
- Assay type: functional, tissue-based
- Stated Conditions: 0.25 h
Class field: derived from EC50; ranges lo (below 8 µM), med (8 µM to below 30 µM), hi (30 µM or more)

Example entries and their recorded answers appear below.
Molecule: COc1ccc(CCN(C)CCCC(C#N)(c2ccc(OC)c(OC)c2)C(C)C)cc1OC (stereo not given)
Assigned Label: lo

Molecule: COc1ccc(Br)cc1C(C)NC(=O)N(C)S(=O)(=O)c1ccccc1 (racemic)
Assigned Label: med

Molecule: CCOc1ccc(Br)cc1C(C)NC(=O)N(C)S(=O)(=O)c1ccccc1 (racemic)
Assigned Label: med

Molecule: COc1ccc(Cl)cc1C(C)NC(=O)N(C)S(=O)(=O)c1ccccc1 (racemic)
Assigned Label: lo

Molecule: COc1ccc(Br)cc1C(C)NC(=O)N(C)S(=O)(=O)c1ccc(Cl)cc1 (racemic)
Assigned Label: hi

Molecule: COc1ccc(OC)c(CNC(=O)N(C)S(=O)(=O)c2ccccc2)c1
Assigned Label: med

Molecule: CC1(C)Oc2ccc(C#N)cc2[C@H](N2CCCC2=O)[C@H]1O [(-)-CROMAKALIM]
Assigned Label: hi

In: Assign a bin to COc1ccc(Br)cc1C(C)NC(=O)N(C)S(=O)(=O)c1ccc(C)cc1 (stereo not given)
Out: med
